assay: chemical genetic growth profiling, strain panel (AID 1159580);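 note: tested at 20 µM; growth read once vehicle control cultures reached saturation at 30 °C; 1 = growth at the plate median or of vehicle wells; lower values mean less growth of the strain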; conditions: S. cerevisiae deletion strains, growth OD, locus YHR129C, strain ARP1, active compounds read low
The whole screen tested about 5,500 compounds, of which about 2,000 (36%) were called active. Roughly 18% stayed inconclusive and do not appear here. This is one part of the list.
Field: normalized growth. Provide a value for each of the compounds that follow.
Answers are plain numbers.

[[record]]
compound = "CC1CCc2cc(F)cc3c(=O)c(C(=O)O)cn1c23 (configuration not stated)"
measurementname = "normalized growth"
testresult = 0.977


// each compound listed below needs its normalized growth
1. C[n+]1c2cc(N)ccc2cc2ccc(N)cc21
2. CN1CC(=O)N=C1N
3. COc1ccc2c(c1)OC/C(=C\c1ccc(OC)c(O)c1)C2=O
4. CNCCC(Oc1ccc(C(F)(F)F)cc1)c1ccccc1 (configuration not stated)
5. COc1cc2c(cc1OC)C(=O)c1ccc(OC)c(OC)c1OCC(=O)C2

1: 0.897; 2: 1.01; 3: 0.516; 4: 1.02; 5: 1

Give me normalized growth for each of these compounds, listed below.
1. C/C=C(\C)C(=O)O[C@H]1C[C@@H](OC(C)=O)[C@@]2(C(=O)OC)CO[C@@H]3C2[C@]12CO[C@](O)(C(=O)OC)[C@H]2[C@](C)(C12O[C@@]1(C)[C@H]1C[C@@H]2OC2OC=C[C@@]21O)[C@@H]3O (some centres not stated)
2. CC1COc2c(N3CCN(C)CC3)c(F)cc3c(=O)c(C(=O)O)cn1c23 (configuration not stated)
3. COC(=O)/C=C/C(C)=C/C=C/C(C)=C/C=C/C=C(C)/C=C/C=C(C)/C=C/C(=O)O
4. COc1ccc2c(c1)OC/C(=C/c1ccc(OC)c(OC)c1)C2=O
5. CCN(CC)Cc1ccc(Nc2ccnc3cc(Cl)ccc23)cc1O
6. Cc1ncc(CNC(=O)N(CCCl)N=O)c(N)n1

[0.992, 1, 1.01, 0.867, 1, 1.02]
